Origin of measurements: paper PMC6112376

# System: rat primary hepatocytes
# MEASUREMENT_PROTOCOL: MMP assay in rat primary hepatocytes
# MEASUREMENT_PARAMETERS: rat hepatocytes; mean ± SD of three experiments
Decision: MMP assays efficacy (%) Rat Hepatocytes >= -80% yields y, all other cases yield n.

Study these solved cases before continuing.
O=[N+]([O-])c1ccc(O)c2ncccc12	y
Nc1ccc(NC(=O)c2ccc(N)cc2)cc1 [4,4'-Diaminobenzanilide]	n
Cc1ccc2c(Br)cc(Br)c(O)c2n1	n
CC(C)(c1ccc(O)cc1)c1ccc(O)cc1	y
Nc1cc(Cl)c(O)c(Cl)c1	y

Quick check, MMP assays efficacy (%) Rat Hepatocytes >= -80%? `O=C(Nc1ccc(Cl)cc1)Nc1ccc(Cl)c(C(F)(F)F)c1`
n

* * *

Provide the recorded IC50 for the entries that follow.
# Tested on: rat primary hepatocytes
# MEASUREMENT_PROTOCOL: MMP assay in rat primary hepatocytes
# MEASUREMENT_PARAMETERS: Rattus norvegicus, Hepatocyte, read-out: MMP assays IC50 (µM) Rat Hepatocytes
Structures can show the parent of a compound that is named as a salt.
One number for each entry, in µM.

N#CSCSc1nc2ccccc2s1	30.5
CC(C)(C)c1cc(/C=C2\SC(N)=NC2=O)cc(C(C)(C)C)c1O [Darbufelone mesylate]	7.15
O=c1c(-c2ccc(O)cc2)coc2cc(O)cc(O)c12	33.7
CCC/C=C/C=C/C(=O)O[C@H]1/C(=C/C(=O)OC)C[C@H]2C[C@H]([C@@H](C)O)OC(=O)C[C@H](O)C[C@@H]3C[C@H](OC(C)=O)C(C)(C)[C@](O)(C[C@@H]4C/C(=C/C(=O)OC)C[C@H](/C=C/C(C)(C)[C@]1(O)O2)O4)O3	0.79
CCCCC(CC)CN1C(=O)C2C3C=CC(C3)C2C1=O (stereo not shown)	17.8

Answer for every listed entry: what is its IC50? The entries follow.
1. COc1ccc(C(=O)c2ccc(OC)cc2O)c(O)c1
2. NS(=O)(=O)C(F)(F)C(F)(F)C(F)(F)C(F)(F)C(F)(F)C(F)(F)C(F)(F)C(F)(F)F [Perfluorooctanesulfonamide]

1: 29.8; 2: 1.47

* * *

# Tested on: rat primary hepatocytes
# MEASUREMENT_PROTOCOL: MMP assay in rat primary hepatocytes
# MEASUREMENT_PARAMETERS: read-out: Rat hepatocytes IC50 (MMP); 1 h treatment; fresh re-sourced stocks; mean±SD of three experiments
READOUT_LABEL: IC50 (µM)
Numbers only, in µM.

Cl.N=C1C=CC(=C(c2ccc(N)cc2)c2ccc(N)cc2)C=C1 [C.I. Basic red 9 monohydrochloride]	6.3

Recorded IC50 for CCN1C(=CC=Cc2ccc3ccccc3[n+]2CC)C=Cc2ccccc21.[Cl-] [Pinacyanol chloride] , please?
0.31

* * *

# System: isolated rat liver mitochondria
# MEASUREMENT_PROTOCOL: Oxygen consumption, Clark-type oxygen electrode
# Type: biochemical
# MEASUREMENT_PARAMETERS: 100 µM
READOUT_LABEL: II-sub, % of control (O2 consumption rate)

Known results for compounds:
O=C1c2ccccc2C(=O)C1C(=O)C(c1ccccc1)c1ccc(Cl)cc1 (stereo not shown) [Chlorophacinone]	61 (13.1) % of control
Nc1ccc(N)c2c1C(=O)c1ccccc1C2=O [1,4-Diaminoanthraquinone]	95 (14.1) % of control
CCOCn1c(-c2ccc(Cl)cc2)c(C#N)c(Br)c1C(F)(F)F [Chlorfenapyr]	139 (30.2) % of control

Turning now to a further record.
Reported II-sub, % of control (O2 consumption rate) for N#CC(C#N)=NNc1ccc(OC(F)(F)F)cc1 [FCCP, reference compound] : what is it?
98 (30.8) % of control
